Would you mind telling me the reported normalized growth of each entry?
experiment: chemical genetic growth profiling, strain panel (AID 1159580);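 note: tested at 20 µM; growth read once vehicle control cultures reached saturation at 30 °C; 1 = growth at the plate median or of vehicle wells; lower values mean less growth of the strain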; details: S. cerevisiae deletion strains, growth OD, locus YNR030W, strain Alg12, hits give low values
The campaign covered roughly 5,500 compounds. About 2,000 (36%) were called active. Roughly 18% stayed inconclusive and do not appear here. This is one part of the list.
Answers are plain numbers.

{"columns": ["compound", "endpoint.value"],
 "data": [
  ["Cc1c(C)c(C)c(S(=O)(=O)Nc2ccccc2N)c(C)c1C", 0.966],
  ["COc1ccccc1N1CC(C)(C)C(=O)N(C(=O)c2c(F)cccc2Cl)C1=S", 1],
  ["Cn1c(Sc2ccc(C(F)(F)F)cc2[N+](=O)[O-])nnc1C(F)(F)F", 1.02],
  ["CC1CN=C(NC2CCCCC2)S1 (centres undefined)", 1]
]}

For every item below, please supply its normalized growth.
1. O=[N+]([O-])c1cc(C(F)(F)F)ccc1Oc1cc(C(F)(F)F)cc(C(F)(F)F)c1
2. N/C(=N/O)c1cnccc1C(F)(F)F

1. 1.05
2. 0.999
